- measurement.description: Clearance in Sprague-Dawley rat at 2.49 mg/kg, iv
- Type: ADME, organism-based
- Set-up: dose 2.49 mg/kg, route intravenous
- condition.notes: in vivo
value.type: clearance (mL/min/kg)

1. CC(C)(C)c1cc2cc[nH]c2cc1NC(=O)c1c[nH]c2ccccc2c1=O	15.8

* * *

- measurement.description: AUC (0 to infinity) in Sprague-Dawley rat at 1.29 mg/kg, iv
- Assay type: ADME, organism-based
- Set-up: dose 1.29 mg/kg, route intravenous, time infinity
- condition.notes: plasma
value.type: AUC(0-inf)

1. CC(C)(C)c1ccc(NC(=O)c2c[nH]c3ccccc3c2=O)cc1O	260 ng·h/mL
